Assay: Plasma pharmacokinetics and total colon tissue distribution in mice, single oral administration
Type: in vivo, mouse (male C57BL/6)
Settings: male, C57BL/6, mouse, plasma, 5 mg/kg, read-out: Median plasma concentration
MEASURED_PROPERTY: concentration at 12 h (ng/mL)

1. COc1c(NC(=O)Nc2ccc(Oc3ccnc(Nc4ccccc4)c3)c3ccccc23)cc(C(C)(C)C)cc1C(=O)NC1COC1: 0

----------
As shown below, each of these compounds has a reported pIC50 value.
Molecular target: GSK 3α (Homo sapiens (Human), UniProt P49840)
Sequence (P49840 whole entry): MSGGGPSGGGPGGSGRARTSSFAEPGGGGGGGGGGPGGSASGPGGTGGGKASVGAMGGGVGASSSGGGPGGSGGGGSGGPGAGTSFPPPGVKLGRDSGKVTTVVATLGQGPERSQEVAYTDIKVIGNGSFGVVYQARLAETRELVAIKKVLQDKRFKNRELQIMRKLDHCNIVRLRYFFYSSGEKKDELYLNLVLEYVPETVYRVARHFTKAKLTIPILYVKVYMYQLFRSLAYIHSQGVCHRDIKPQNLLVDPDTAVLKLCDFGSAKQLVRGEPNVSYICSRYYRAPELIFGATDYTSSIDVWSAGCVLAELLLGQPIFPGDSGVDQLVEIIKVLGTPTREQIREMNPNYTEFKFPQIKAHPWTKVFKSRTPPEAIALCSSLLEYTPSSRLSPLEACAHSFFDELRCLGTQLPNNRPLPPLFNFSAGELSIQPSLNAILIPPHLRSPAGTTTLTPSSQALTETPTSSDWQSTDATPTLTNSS
pIC50: −log10 of the molar value.
MEASURED_PROPERTY: pIC50

1) COCCOCCOCCOc1cc(Nc2nccc(Oc3ccc(NC(=O)Nc4cc(C(C)(C)C)cc(NS(C)(=O)=O)c4OC)c(Cl)c3Cl)n2)cc(OC)c1 [Example 10]: 5.88
2) COCCOCCOCCOc1cc(Nc2nccc(Oc3ccc(NC(=O)Nc4cc(C(C)(C)C)cc(NS(=O)(=O)N(C)C)c4OC)c4ccccc34)n2)cc(OC)c1 [Example 74]: 5.01
3) COCCOCCOCCOc1cc(Nc2nccc(Oc3ccc(NC(=O)Nc4cc(C(C)(C)C)cc(C(=O)O)c4OC)c4ccccc34)n2)cc(OC)c1 [Example 21]: 5.79
4) COCCOCCOCCNC(=O)c1cc(Nc2cc(Oc3ccc(NC(=O)Nc4cc(C(C)(C)C)cc(NS(C)(=O)=O)c4OC)c4ccccc34)ccn2)cc(OC)c1 [Example 3]: 5.36
5) COCCOCCOCCOc1cc(Nc2nccc(Oc3ccc(NC(=O)Nc4cc(C(C)(C)C)ccc4OC)c4ccccc34)n2)cc(OC)c1 [Example 8]: 5.00
6) COCCOCCOCCOCCOCCOCCOCCOc1cc(Nc2cc(Oc3ccc(NC(=O)Nc4cc(C(C)(C)C)cc(NS(C)(=O)=O)c4OC)c4ccccc34)ccn2)cc(OC)c1 [Example 45]: 5.67

----------
System: non-mutant kinases
Assay type: binding
Conditions: 50 nM; non-mutant kinases with % Ctrl <10
Procedure: These assays may be conducted by DiscoverX (formerly Ambit; San Diego, Calif.). The percentage inhibition produced by incubation with a test compound may be calculated relative to the non-inhibited control.
The entries below are paired with their reported number of individual kinase hits, S(10).
MEASURED_PROPERTY: number of individual kinase hits, S(10)

1) COCC(=O)Nc1cc(Oc2ccc(NC(=O)Nc3cc(C(C)(C)C)nn3-c3ccc(C)cc3)c3ccccc23)ccn1 [Reference Compound, reference compound]: 32
2) COc1c(NC(=O)Nc2ccc(Oc3ccnc(Nc4ccccc4)c3)c3ccccc23)cc(C(C)(C)C)cc1C(=O)NC1COC1: 14
3) C#Cc1cc(Nc2nccc(Oc3ccc(NC(=O)Nc4cc(C(C)(C)C)cc(NS(C)(=O)=O)c4OC)c4ccccc34)n2)cc(C(=O)NCCOCCOCCOC)c1: 9
4) COCCOCCOCCNC(=O)c1cc(Nc2cc(Oc3ccc(NC(=O)Nc4cc(C(C)(C)C)cc(NS(C)(=O)=O)c4OC)c4ccccc34)ccn2)cc(OC)c1: 9

----------
Kd overview
Molecular target: UniProt:Q16539
Sequence (Q16539 whole entry): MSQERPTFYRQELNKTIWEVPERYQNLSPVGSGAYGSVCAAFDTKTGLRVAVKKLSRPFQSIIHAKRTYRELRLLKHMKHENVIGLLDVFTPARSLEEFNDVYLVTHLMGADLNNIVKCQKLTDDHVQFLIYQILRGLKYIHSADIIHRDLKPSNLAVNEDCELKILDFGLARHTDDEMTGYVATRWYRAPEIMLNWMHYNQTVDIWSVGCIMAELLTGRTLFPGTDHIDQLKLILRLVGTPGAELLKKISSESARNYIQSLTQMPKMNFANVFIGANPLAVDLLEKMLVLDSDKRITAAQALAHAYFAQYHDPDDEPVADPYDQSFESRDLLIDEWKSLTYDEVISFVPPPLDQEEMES
Experiment: KINOMEscan enzyme binding assay (dissociation constant)
MEASURED_PROPERTY: Kd (µM)

1) COc1c(NC(=O)Nc2ccc(Oc3ccnc(Nc4ccccc4)c3)c3ccccc23)cc(C(C)(C)C)cc1C(=O)NC1COC1 [Example 75]: 0.014
2) COc1cc(Nc2cc(Oc3ccc(NC(=O)Nc4cc(C(C)(C)C)cc(NS(C)(=O)=O)c4OC)c4ccccc34)ccn2)cc(C(=O)NCCN2CCOCC2)c1 [Example 27]: 0.029
3) COCCOCCOCCNC(=O)c1cc(Nc2cc(Oc3ccc(NC(=O)Nc4cc(C(C)(C)C)cc(NS(C)(=O)=O)c4OC)c4ccccc34)ccn2)cc(OC)c1 [Example 3]: 0.0069
4) COCCOCCOCCOc1cc(Nc2nccc(Oc3ccc(NC(=O)Nc4cc(C(C)(C)C)cc(NS(C)(=O)=O)c4OC)c4ccccc34)n2)cc(OC)c1 [Example 4]: 0.019
